// provenance: ChEMBL document CHEMBL5380862

Assay: Oral bioavailability in ICR mouse at 5 mg/kg administered as single dose
Type: ADME, organism-based
Settings: in vivo
Observation type: bioavailability (%)
Give bare numbers, in %.

Prompt line: # bioavailability lookup, item O=P([O-])(OC1=Cc2c(Cl)cccc2Sc2ccccc21)OC1=Cc2c(Cl)cccc2Sc2ccccc21.[Na+]
Response line: 12

###

Assay: Drug distribution in mouse plasma at 5 mg/kg, po administered as single dose and measured after 8 hrs by LC-MS analysis
Format: ADME, organism-based
Conditions: read-out: Drug uptake
Observation type: concentration at 8 h (ng/mL)
One number for each entry, in ng/mL.

Prompt line: # concentration at 8 h lookup, item O=P([O-])(OC1=Cc2c(Cl)cccc2Sc2ccccc21)OC1=Cc2c(Cl)cccc2Sc2ccccc21.[Na+]
Response line: 50.7
